Below: a set of entries, each annotated with reported growth.
Test system: HOP-62 NSCLC
Protocol summary: NCI-60 one-dose screen, 48 h (100 = growth as untreated, 0 = no growth, -100 = all killed)
Recorded conditions: 10 µM unless noted
Protocol: Growth inhibition of the HOP-62 human Non-Small Cell Lung tumor cell line is measured as a screen for anti-cancer activity. Cells are grown in 96 well plates and exposed to the test compound for 48 hours. Compounds are tested at a single concentration, which is 10^-5 M for most compounds. The reported endpoint is percent growth (GI% or GIPRCNT), where numbers from 0 - 100% represent growth inhibition, and numbers from -100% - 0 represent cell death. […]
The panel holds about 83,000 compounds, 20% with a hit somewhere; the sample as a whole holds those more often. Active and inactive are the calls of the source. Rule for the calls: active = growth percent below 10; inactive = the rest.

// solved cases for growth follow
Cc1cccc(CNc2c3ccccc3nc3ccccc23)c1
40.4% (inactive)
CCCNC(=O)Nc1ccc2cc3ccc(NC(=O)NCCC)cc3nc2c1
81.8% (inactive)

Task item: Using the record for "O=C(N/N=C/c1c(Cl)cccc1Cl)c1cccnc1Nc1cccc(C(F)(F)F)c1" , state its measured growth.
Reply: 40.2% (inactive)

---

Below: a set of entries, each annotated with reported growth.
Tested on: NCI-H322M lung
Protocol summary: NCI-60 one-dose screen, 48 h (100 = growth as untreated, 0 = no growth, -100 = all killed)
Recorded conditions: 10 µM unless noted
The panel holds about 83,000 compounds, 20% with a hit somewhere; the sample as a whole holds those more often. Calls of active or inactive are those of the source. Rule for the calls: active = growth percent below 10; inactive = the rest.

COC(=O)c1nc(-c2ccc(C)cc2)oc1S(=O)(=O)c1cccc(OC)c1
93.3% (inactive)

Task item: Using the record for "O=C1C(Cl)=C(Nc2ccc(S(=O)(=O)N3CCOCC3)cc2)C(=O)c2ccccc21" , state its measured growth.
Reply: 99.8% (inactive)

Task item: Using the record for "Nc1nc2ccccc2c2c1S(=O)(=O)c1ccc(Cl)cc1C2=O" , state its measured growth.
Reply: 63% (inactive)

Task item: Using the record for "C#COc1cccc(Nc2c(C#N)cnc3ncc(NC(=O)CCl)cc23)c1" , state its measured growth.
Reply: 53.1% [6.25 µM] (inactive)

Task item: Using the record for "c1cc2c(ccc3[nH]c(-c4ccc5[nH]ncc5c4)c4c(c32)CCCC4)n1" , state its measured growth.
Reply: 92.2% (inactive)

---

Below: a set of entries, each annotated with reported growth.
System: DU-145 prostate
Protocol summary: NCI-60 one-dose screen, 48 h (100 = growth as untreated, 0 = no growth, -100 = all killed)
Recorded conditions: 10 µM unless noted
Compounds without any hit were thinned out: in the full panel of roughly 83,000, 20% have a hit.
Numbers only here, please. The scale is %.

Task item: Using the record for CCCCCCC12CCC(=O)N1CCc1cncn12 (stereo not drawn) , state its measured growth.
Reply: 109

Task item: Using the record for "O=C(O)c1cn(C2CC2)c2cc(N3CCN(Cc4ccc5ccccc5c4O)CC3)c(F)cc2c1=O" , state its measured growth.
Reply: 11.2

Task item: Using the record for "O=C1c2c(c3c4ccccc4[nH]c3c3ccc4ccccc4c23)C(=O)N1CCN1CCNCC1" , state its measured growth.
Reply: 8.13

---

Test system: SK-MEL-28 melanoma
Protocol summary: NCI-60 one-dose screen, 48 h
Recorded conditions: 10 µM unless noted
The panel holds about 83,000 compounds, 20% with a hit somewhere; the sample as a whole holds those more often. Activity calls are given as the source filed them. The calls were made as follows: active = growth percent below 10; inactive = the rest.
Give your call using only these classes: active, inactive

For orientation, consider the following solved cases.
O=C1NC2(Nc3ccccc31)C(=O)Nc1c(Cl)cc(Cl)cc12 (centres undefined)
inactive
C=C1C(=O)O[C@H]2[C@H]1CC/C(Cn1cc(-c3ccccc3)nn1)=C\CC[C@@]1(C)O[C@@H]21
active

Task item: Recorded test outcome, item "COc1ccc(/C=C(\C#N)n2nnc3cc(F)c(F)cc32)cc1"
Reply: inactive

Task item: Recorded test outcome, item "CCCCCC(/C=N\NC(=S)N/N=C/C(=C/c1ccccc1)CCCCC)=C\c1ccccc1"
Reply: inactive

---

Test system: SF-539 CNS
Protocol summary: NCI-60 one-dose screen, 48 h
Recorded conditions: 10 µM unless noted
About 83,000 compounds went through this panel and 20% of them were active in at least one assay; those are over-represented in the sample as a whole. Active and inactive are the calls of the source. Rule for the calls: active = growth percent below 10; inactive = the rest.
Give your call using only these classes: active, inactive

For orientation, consider the following solved cases.
COc1cc(C2c3cc(OC(C)=O)c(OC)cc3CC3C(=O)OCC32)ccc1OC(C)=O (stereo not given)
inactive
Cc1cc(S(=O)(=O)/N=C(\N)n2nc(C)c(C)c2C)c(SCc2ccccc2)cc1Cl
inactive
CC(C)(Sc1cc(C(C)(C)C)c(OC(=O)CCCC(=O)O)c(C(C)(C)C)c1)Sc1cc(C(C)(C)C)c(OC(=O)CCCC(=O)O)c(C(C)(C)C)c1
active
O=C(N/N=C/c1c(Cl)cccc1Cl)c1cccnc1Nc1cccc(C(F)(F)F)c1
inactive

Task item: Recorded test outcome, item "CCOC(=O)c1cc(C(=O)c2cc(OC)c(OC)c(OC)c2)n2ncccc12"
Reply: active

Task item: Recorded test outcome, item N#CC1=C(c2ccccc2)Nc2c(c(-c3ccc(Cl)cc3)nn2-c2ccccc2)C12C(=O)Nc1ccc(Cl)cc12 (stereo not given)
Reply: inactive

Task item: Recorded test outcome, item "COc1ccc(/C=N/NC(=O)c2ccc(-n3cc(-c4ccccc4)nn3)cc2)cc1OC"
Reply: inactive

Task item: Recorded test outcome, item "C=C(C)[C@@H]1CC[C@]2(C(=O)N3CCOCC3)CC[C@]3(C)[C@H](CC[C@@H]4[C@@]5(C)C/C(=C/c6ccncc6)C(=O)C(C)(C)[C@@H]5CC[C@]43C)[C@@H]12"
Reply: inactive

Task item: Recorded test outcome, item "CCOC(=O)c1nn(-c2ccc(S(N)(=O)=O)cc2)c2nc(C)cc(=O)n12"
Reply: inactive

Task item: Recorded test outcome, item "COc1ccc(/C=C(\C#N)n2nnc3ccc(Cl)cc32)cc1"
Reply: inactive

---

Test system: OVCAR-5 ovarian
Protocol summary: NCI-60 one-dose screen, 48 h (100 = growth as untreated, 0 = no growth, -100 = all killed)
Recorded conditions: 10 µM unless noted
This is part of a sample that, as a whole, favours compounds with a hit. Of some 83,000 tested, about 20% had one in any assay. The source made the active and inactive calls. How the source made its calls: active means growth percent below 10; inactive means the rest.
Metric: growth

// solved cases for growth follow
COc1ccc(/C=C/C(=O)c2cccc(OCCCCOc3cccc(C(=O)/C=C/c4ccc(OC)c(OC)c4)c3)c2)cc1OC
102% (inactive)
CCc1ccccc1-n1c(-c2ccc(OC)cc2)cc(-c2ccc(OC)cc2)c(C#N)c1=O
92.7% (inactive)
CCSC(SCC)c1ccc(Cl)cc1
109% (inactive)
C=CCn1c(SCC(=O)Nc2ccc(C(=O)/C=C/c3ccc(Cl)cc3)cc2)nnc1-c1ccc(Br)cc1
98% (inactive)
C#COc1cccc(Nc2c(C#N)cnc3ncc(NC(=O)CCl)cc23)c1
42.9% [6.25 µM] (inactive)
CSc1nc2ncc([N+](=O)[O-])c(=O)n2[nH]1
106% (inactive)

Now, please, on to the next compound.
Task item: Using the record for "CCOC(=O)NC(C)C" , state its measured growth.
Reply: 90.5% (inactive)

---

System: HCT-116 colon
Protocol summary: NCI-60 one-dose screen, 48 h (100 = growth as untreated, 0 = no growth, -100 = all killed)
Recorded conditions: 10 µM unless noted
This is part of a sample that, as a whole, favours compounds with a hit. Of some 83,000 tested, about 20% had one in any assay.
Metric: growth (%)
Numbers only here, please. The scale is %.

// solved cases for growth follow
COc1ccc(/C=C(\C#N)n2nnc3cc(Cl)ccc32)cc1
-9.51
CCC(=C(c1ccc(OCCN2CCCCC2)cc1)c1ccc(OCCN2CCCCC2)cc1)c1ccc(Cl)cc1
-91.1
C=C(C)[C@@H]1CC[C@]2(CO)CC[C@]3(C)[C@H](CC[C@@H]4[C@@]5(C)CC[C@H](NCO)C(C)(C)[C@@H]5CC[C@]43C)[C@@H]12
-62.1
Cc1ccc2c(Cn3cc(CSc4nc5ccccc5o4)nn3)cc(=O)oc2c1
104
COC(=O)Nc1nc2ccc(S(=O)c3ccccc3)cc2[nH]1 (configuration not stated)
39.4
O=C(c1ccccc1)c1ccc(C2CCCCC2)cc1
83.8
CC(C)COc1nc2c(c(=O)n(C)c(=O)n2C)n1C
107
O=C(Nc1cccc2ccccc12)NC1CC1
103
CSc1nc2ccccc2cc1/C=[N+](\[O-])c1ccccc1
10.4
Nc1ncnc2c1c(-c1cccc(Cl)c1)nn2CC(=O)N1CCOCC1
101

Task item: Using the record for "CCN(CC)CCn1c2ccc(OC)cc2c2sc3cc(OC)ccc3c(=O)c21" , state its measured growth.
Reply: 4.6

Task item: Using the record for "CCOC(=O)[C@@H]1CSC(CC)=C(C(=O)O)N1" , state its measured growth.
Reply: 94.1

Task item: Using the record for "C=C1C(=O)O[C@H]2[C@H]1CC/C(COC(=O)c1cc3ccccc3s1)=C\CC[C@@]1(C)O[C@@H]21" , state its measured growth.
Reply: -83.8
